EXPERIMENT_DESCRIPTION: Approximate solubility at 25° C. (visual observation)
Format: physicochemical
CONDITIONS_USED: dichloromethane, organic solvent or mixture, thermodynamic from solid, starting material for salt screening
ATTRIBUTE_MEASURED: Solubility

INSERT INTO results (compound, value_observed) VALUES
  ('N#Cc1c(-c2cc(NC(=O)c3cc(F)cc(C(F)(F)F)c3)c3c(c2)C(=O)N[C@H]3c2cc(F)ccc2Cl)ccc2ncnn12 [Compound I-1]', '< 5000 µg/mL');

* * *

EXPERIMENT_DESCRIPTION: Approximate solubility at 25° C. (visual observation)
Type: physicochemical
CONDITIONS_USED: toluene, organic solvent or mixture, thermodynamic from solid, polymorph screening batch
ATTRIBUTE_MEASURED: Solubility

INSERT INTO measurements (compound, value_observed) VALUES
  ('N#Cc1c(-c2cc(NC(=O)c3cc(F)cc(C(F)(F)F)c3)c3c(c2)C(=O)N[C@H]3c2cc(F)ccc2Cl)ccc2ncnn12 [Compound I-1]', '< 5000 µg/mL');

* * *

EXPERIMENT_DESCRIPTION: Approximate solubility at 25° C. (visual observation)
Assay type: physicochemical
CONDITIONS_USED: methanol, organic solvent or mixture, thermodynamic from solid, polymorph screening batch
ATTRIBUTE_MEASURED: Solubility

INSERT INTO measurements (structure_notation, attribute_measured, value_observed) VALUES
  ('N#Cc1c(-c2cc(NC(=O)c3cc(F)cc(C(F)(F)F)c3)c3c(c2)C(=O)N[C@H]3c2cc(F)ccc2Cl)ccc2ncnn12', 'Solubility', '15 to 17 mg/mL');
